# tgt: ERα (Homo sapiens (Human), UniProt P03372)
# Sequence (P03372 whole entry): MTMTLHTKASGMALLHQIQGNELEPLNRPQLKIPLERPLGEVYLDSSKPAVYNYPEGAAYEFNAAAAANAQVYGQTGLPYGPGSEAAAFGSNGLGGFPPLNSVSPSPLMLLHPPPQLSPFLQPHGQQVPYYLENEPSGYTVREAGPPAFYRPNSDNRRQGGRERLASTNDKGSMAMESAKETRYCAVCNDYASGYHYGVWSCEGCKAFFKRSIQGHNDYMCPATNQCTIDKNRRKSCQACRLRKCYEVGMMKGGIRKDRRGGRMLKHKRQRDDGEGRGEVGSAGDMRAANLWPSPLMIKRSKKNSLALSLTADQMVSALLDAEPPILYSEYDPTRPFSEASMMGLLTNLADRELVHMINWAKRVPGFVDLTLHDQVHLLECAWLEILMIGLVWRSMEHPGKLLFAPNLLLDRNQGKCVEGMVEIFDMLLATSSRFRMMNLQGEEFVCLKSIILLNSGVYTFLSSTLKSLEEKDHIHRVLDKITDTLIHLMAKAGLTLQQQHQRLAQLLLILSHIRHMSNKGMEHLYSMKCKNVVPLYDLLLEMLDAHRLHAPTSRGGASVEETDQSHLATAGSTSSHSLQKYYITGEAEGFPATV
# testProtocol: ERα degradation (MCF7 cells), in-cell Western
# Assay type: cell-based
# measurementConditions: remaining ERα protein at 10 μM ligand, MCF7 cells, relative to DMSO control
# Procedure: ERα Degradation (MCF7 Cells) The column titled MCF7 IC50 reports the inflection point of the inhibition of transcription in MCF7 cells as described above. Percentage ERα remaining reports the remaining ERα protein measured at 10 μM concentration of the ligand as described above. The column ERα IC50 reports the inflection point of the degradation in response to the ligand concentration.
propertyMeasured: % ERα remaining (%)

>>> print(df.to_string())
                                   compound  unitname  valuereported
0  COCCC(=O)Oc1ccc2c(Oc3ccc(/C=C/C(=O)O)cc3)c(-c3ccccc3C(C)C)sc2c1 [Example 83]         %             13
1  [C-]#[N+]c1ccccc1-c1sc2cc(O)ccc2c1Oc1ccc(/C=C/C(=O)O)cc1 [Example 24]         %             22
2  O=C(O)CCc1ccc(Oc2c(-c3ccc(O)cc3)sc3cc(O)ccc23)cc1 [Example 1]         %             58
3  CNC(=O)/C=C/c1ccc(Oc2c(-c3ccc(O)c(F)c3)sc3cc(O)ccc23)cc1 [Example 69]         %             26
4  COc1ccc(-c2sc3cc(O)ccc3c2Oc2ccc(/C=C/C(=O)O)cc2)c(C(F)(F)F)n1 [Example 91]         %             16
5  CC(C)c1ccccc1-c1sc2cc(O)ccc2c1Oc1ccc(/C=C/c2nnc(C3CC3)o2)cc1 [Example 104]         %             29
6  O=C(O)/C=C/c1ccc(Oc2c(-c3ccccc3[N+](=O)[O-])sc3cc(O)ccc23)cc1 [Example 21]         %             22
7  CN(C)Cc1ccccc1-c1sc2cc(O)ccc2c1Oc1ccc(/C=C/C(=O)O)cc1 [Example 77]         %             15
